// provenance: PubChem BioAssay (NCI)

Test system: UACC-257 melanoma
Assay: NCI tumour cell line growth inhibition, 48 h
Measured TGI, listed per entry.

[
  {
    "compound": "Cn1ccnc1C(O)(c1nccn1C)c1nccn1C",
    "target under test": "UACC-257 melanoma",
    "TGI": "> 100 µM"
  },
  {
    "compound": "N#CCc1nc(-c2ccccc2)n[nH]1",
    "target under test": "UACC-257 melanoma",
    "TGI": "> 100 µM"
  },
  {
    "compound": "Nc1ccc(-c2nc3ccccc3s2)cc1C(F)(F)F",
    "target under test": "UACC-257 melanoma",
    "TGI": "29 µM"
  },
  {
    "compound": "CCCCNC(=S)N/N=C/c1cccc(C)n1",
    "target under test": "UACC-257 melanoma",
    "TGI": "> 100 µM"
  },
  {
    "compound": "CCOC(CNCCC(=O)OC)OCC",
    "target under test": "UACC-257 melanoma",
    "TGI": "> 10 µM"
  },
  {
    "compound": "CCC/C=C/C=C/C1CC(O)C(O)C(=O)C1CO (stereo unspecified)",
    "target under test": "UACC-257 melanoma",
    "TGI": "> 100 µM"
  }
]

###

Test system: NCI-H226 lung
Assay: NCI tumour cell line growth inhibition, 48 h
property measured: TGI (µM)

[
  {
    "compound": "N=C(N)c1ccc(-c2ccc(-c3cccs3)s2)cc1",
    "property measured": "TGI",
    "inequality sign": "=",
    "reported value": 33
  },
  {
    "compound": "CCNC(=O)/C(=C/c1ccc(OC)cc1)c1cc(OC)c(OC)c(OC)c1",
    "property measured": "TGI",
    "inequality sign": "=",
    "reported value": 88.7
  },
  {
    "compound": "CC(C)CCC[C@@H](C)C1CCC2[C@@H]3CC=C4C[C@@H](C(=O)NCCN(C)C)CC[C@]4(C)C3CC[C@@]21C (some centres not stated)",
    "property measured": "TGI",
    "inequality sign": "=",
    "reported value": 51.4
  },
  {
    "compound": "Cc1ccc(CC[P+](=O)CCc2ccc(C)nc2)cn1",
    "property measured": "TGI",
    "inequality sign": ">",
    "reported value": 100
  },
  {
    "compound": "NC(=O)C(=O)CC(=O)c1ccccc1NC1=CC(=O)C(=O)c2ccccc21",
    "property measured": "TGI",
    "inequality sign": ">",
    "reported value": 100
  },
  {
    "compound": "CC(=O)OCC1OC(n2cc(I)c(=O)[nH]c2=O)C(OC(C)=O)C(OC(C)=O)C1OC(C)=O (configuration not stated)",
    "property measured": "TGI",
    "inequality sign": ">",
    "reported value": 100
  },
  {
    "compound": "CCN1CCCC(NCc2c3ccccc3c(CNC3CCCN(CC)C3)c3ccccc23)C1 (configuration not stated)",
    "property measured": "TGI",
    "inequality sign": "=",
    "reported value": 30
  },
  {
    "compound": "C(/C=C(\\Nc1ccccc1)C12CC3CC(CC(C3)C1)C2)=Nc1ccccc1",
    "property measured": "TGI",
    "inequality sign": "=",
    "reported value": 38.5
  },
  {
    "compound": "CC(C)c1[nH]nc2c1N=C(c1ccccc1Cl)c1cc([N+](=O)[O-])ccc1N2",
    "property measured": "TGI",
    "inequality sign": "=",
    "reported value": 16.1
  },
  {
    "compound": "COc1ccc(-c2nn(-c3cccc(Cl)c3)cc2-c2cc(-c3ccccc3)[nH]c(=O)c2C#N)cc1",
    "property measured": "TGI",
    "inequality sign": ">",
    "reported value": 50
  },
  {
    "compound": "CC(C(=O)c1ccc(Cl)cc1)/C(=N/NC(=O)NN)C(=O)Nc1cccc(C(F)(F)F)c1 (configuration not stated)",
    "property measured": "TGI",
    "inequality sign": ">",
    "reported value": 100
  },
  {
    "compound": "O=C1CC(C(O)(C(F)(F)F)C(F)(F)Cl)CCC1C(O)(C(F)(F)F)C(F)(F)Cl (configuration not stated)",
    "property measured": "TGI",
    "inequality sign": ">",
    "reported value": 10
  },
  {
    "compound": "O=C(c1ccco1)c1c(C(F)(F)F)n([O-])c2ccc(C(F)(F)F)cc2[n+]1=O",
    "property measured": "TGI",
    "inequality sign": "=",
    "reported value": 1.55
  },
  {
    "compound": "COc1cc2nc(-c3cccs3)oc(=O)c2cc1OC",
    "property measured": "TGI",
    "inequality sign": ">",
    "reported value": 100
  },
  {
    "compound": "c1coc(-c2c3ccc(=[N+]4CCCCC4)cc-3oc3cc(N4CCCCC4)ccc23)c1",
    "property measured": "TGI",
    "inequality sign": "=",
    "reported value": 1.87
  },
  {
    "compound": "COc1cc2c(cc1OC)[C@H]1CN3CCC[C@H]3C=C1c1ccc(OC)c(O)c1-2",
    "property measured": "TGI",
    "inequality sign": "=",
    "reported value": 0.0102
  },
  {
    "compound": "CC(=O)N1CCN(c2ccc(OCC3COC(Cn4ccnc4)(c4ccc(Cl)cc4Cl)O3)cc2)CC1 (configuration not stated)",
    "property measured": "TGI",
    "inequality sign": "=",
    "reported value": 73.6
  },
  {
    "compound": "COc1cc2c(/C=N\\N=C(N)N)c[nH]c2cc1C",
    "property measured": "TGI",
    "inequality sign": "=",
    "reported value": 71.8
  },
  {
    "compound": "O=C(CC(=O)C1CCOC1=O)C(=O)Nc1cccc(Cl)c1 (configuration not stated)",
    "property measured": "TGI",
    "inequality sign": ">",
    "reported value": 100
  },
  {
    "compound": "CCC1CN2CCc3cc(OC)c(OC)cc3C2CC1CC1c2cc(OC)c(OC)cc2CCN1C(=O)C1CCCN1 (configuration not stated)",
    "property measured": "TGI",
    "inequality sign": "=",
    "reported value": 96.7
  },
  {
    "compound": "O=[N+]([O-])c1ccc(/C=C/c2cc(-c3ccccc3)nc3ccc4ccccc4c23)cc1",
    "property measured": "TGI",
    "inequality sign": ">",
    "reported value": 100
  },
  {
    "compound": "O=C(Oc1cc(=O)c(OC(=O)c2ccccc2)co1)c1ccccc1",
    "property measured": "TGI",
    "inequality sign": ">",
    "reported value": 100
  },
  {
    "compound": "Cc1cccc(C2=C/C(=C(\\SS/C(C(=O)c3ccc(OCC(=O)O)c(Cl)c3Cl)=C3\\C=C(c4cccc(C)c4)SS3)C(=O)c3ccc(OCC(=O)O)c(Cl)c3Cl)SS2)c1",
    "property measured": "TGI",
    "inequality sign": "=",
    "reported value": 35.6
  },
  {
    "compound": "CCOC(=O)NC(=O)c1cn(C(CC)COC(=O)NCCCCCCNC(=O)OCC(CC)n2cc(C(=O)NC(=O)OCC)c(=O)[nH]c2=O)c(=O)[nH]c1=O (configuration not stated)",
    "property measured": "TGI",
    "inequality sign": ">",
    "reported value": 100
  },
  {
    "compound": "COc1cccc(/C=N/[N-]C(=O)c2ccncc2)c1[O-].COc1cccc(/C=N/[N-]C(=O)c2ccncc2)c1[O-].[O]=[U](=[O])([OH2+])[OH2+]",
    "property measured": "TGI",
    "inequality sign": "=",
    "reported value": 28
  },
  {
    "compound": "COc1ccc(-c2oc(/C=N/NC(N)=S)c([N+](=O)[O-])c2-c2ccc(OC)c(OC)c2)cc1OC",
    "property measured": "TGI",
    "inequality sign": "=",
    "reported value": 62.4
  },
  {
    "compound": "C/C1=C\\CC[C@@]2(C)O[C@@H]2C[C@@H](C2(C)CO2)CC/C(C)=C/CC1 (some centres not stated)",
    "property measured": "TGI",
    "inequality sign": "=",
    "reported value": 30.3
  },
  {
    "compound": "C[C@]12CC[C@@H]3c4ccc(O)cc4CC[C@H]3[C@@H]1C/C(=C\\c1ccncc1)[C@@H]2O",
    "property measured": "TGI",
    "inequality sign": "=",
    "reported value": 42.1
  },
  {
    "compound": "Nc1ccc(-c2nc3ccccc3s2)cc1C(F)(F)F",
    "property measured": "TGI",
    "inequality sign": "=",
    "reported value": 34.4
  },
  {
    "compound": "CC1=NN(C(=O)CC(=O)Nc2ccccc2F)C(=O)C1N=Nc1ccccc1[N+](=O)[O-] (configuration not stated)",
    "property measured": "TGI",
    "inequality sign": ">",
    "reported value": 100
  },
  {
    "compound": "COc1cc2c(Nc3cc(Cl)c(OC)c(Cl)c3)c(C#N)cnc2cc1OCCCN1CCN(C)CC1",
    "property measured": "TGI",
    "inequality sign": "=",
    "reported value": 18.2
  },
  {
    "compound": "O=C(NCCCN(CCCCN(CCCNC(=O)C(F)(F)F)Cc1ccc2ccccc2c1)Cc1ccc2ccccc2c1)C(F)(F)F",
    "property measured": "TGI",
    "inequality sign": ">",
    "reported value": 100
  },
  {
    "compound": "O=C(NCc1ccc(Cn2c(=O)sn(-c3ccccc3)c2=O)cc1)OCc1ccc2cccc(O)c2n1",
    "property measured": "TGI",
    "inequality sign": "=",
    "reported value": 2.77
  },
  {
    "compound": "COc1ccc(/C=C2\\C[C@H]3[C@@H]4CCC5=C/C(=N/O)CC[C@]5(C)[C@H]4CC[C@]3(C)\\C2=N\\O)cc1OC",
    "property measured": "TGI",
    "inequality sign": ">",
    "reported value": 100
  },
  {
    "compound": "O=C1CCCN1c1ccccc1I(=O)=O",
    "property measured": "TGI",
    "inequality sign": ">",
    "reported value": 100
  },
  {
    "compound": "O=C(Nc1cc(Cl)ccc1O)c1ccc(Nc2ccnc(C(F)(F)F)c2)cc1",
    "property measured": "TGI",
    "inequality sign": "=",
    "reported value": 7.33
  },
  {
    "compound": "COC(=O)/C([Se]c1c(C)cc(C)cc1C)=C(/[Se]c1c(C)cc(C)cc1C)C(=O)OC",
    "property measured": "TGI",
    "inequality sign": ">",
    "reported value": 100
  }
]
